These entries and their values trace back to ChEMBL document CHEMBL1134068.

measurementTarget: Prostaglandin G/H synthase 1 (Homo sapiens, UniProt P23219)
Sequence (P23219 whole entry): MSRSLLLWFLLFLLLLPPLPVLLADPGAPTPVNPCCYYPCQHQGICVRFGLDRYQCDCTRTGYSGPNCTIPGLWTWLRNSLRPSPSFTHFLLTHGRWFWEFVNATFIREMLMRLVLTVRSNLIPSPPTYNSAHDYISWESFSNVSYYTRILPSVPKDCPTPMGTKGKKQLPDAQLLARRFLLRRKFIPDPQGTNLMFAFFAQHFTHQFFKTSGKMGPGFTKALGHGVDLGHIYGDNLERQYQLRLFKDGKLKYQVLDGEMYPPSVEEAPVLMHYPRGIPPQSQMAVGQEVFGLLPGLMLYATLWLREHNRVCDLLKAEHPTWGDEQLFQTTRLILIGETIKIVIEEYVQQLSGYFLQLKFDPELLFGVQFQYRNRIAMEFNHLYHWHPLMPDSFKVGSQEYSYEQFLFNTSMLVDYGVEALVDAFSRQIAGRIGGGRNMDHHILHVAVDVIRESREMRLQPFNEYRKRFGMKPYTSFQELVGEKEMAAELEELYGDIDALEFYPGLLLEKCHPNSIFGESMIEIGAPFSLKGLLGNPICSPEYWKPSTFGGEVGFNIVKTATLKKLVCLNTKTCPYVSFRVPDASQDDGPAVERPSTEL
testMethodNotes: Percent inhibition at 10 uM concentration against human recombinant Prostaglandin G/H synthase 1 cloned and expressed in baculovirus
Label TRUE when inhibition is at or above 2%; anything below gets FALSE.

QUERY: Entry "Cc1c(Cc2nc(-c3ccc([N+](=O)[O-])cc3)cs2)c2cc(Br)ccc2n1C(=O)c1ccc(Br)cc1" : is its inhibition no less than 2%?
RESULT: FALSE

QUERY: Entry "Cc1c(Cc2nc(-c3ccc(Cl)cc3)cs2)c2cc(Br)ccc2n1C(=O)c1ccc(Br)cc1" : is its inhibition no less than 2%?
RESULT: TRUE

QUERY: Entry "Cc1c(Cc2nc(-c3ccc([N+](=O)[O-])cc3)cs2)c2cc(F)ccc2n1C(=O)c1ccc(Br)cc1" : is its inhibition no less than 2%?
RESULT: FALSE

QUERY: Entry "COc1ccc2c(c1)c(Cc1nc(-c3ccc(F)cc3F)cs1)c(C)n2C(=O)c1ccc(Cl)cc1" : is its inhibition no less than 2%?
RESULT: TRUE

QUERY: Entry "COc1ccc2c(c1)c(Cc1csc(-c3cccnc3)n1)c(C)n2C(=O)c1ccc(Cl)cc1" : is its inhibition no less than 2%?
RESULT: TRUE

QUERY: Entry "COc1ccc2c(c1)c(Cc1nc(C34C[C@H]5C[C@@H](C3)C[C@@H](C4)C5)cs1)c(C)n2C(=O)c1ccc(Cl)cc1" : is its inhibition no less than 2%?
RESULT: TRUE

QUERY: Entry "Cc1c(Cc2nc(-c3ccc(Cl)cc3)cs2)c2cc(F)ccc2n1C(=O)c1ccc(Br)cc1" : is its inhibition no less than 2%?
RESULT: TRUE
